The measurements presented in this section are drawn from the supplement of paper PMC8633005.

The reader will find reported drug sensitivity score values listed item by item below.
Test system: Bowes
Test: drug sensitivity score (DSS) (DSS (unitless, 0-50 scale)); higher = more sensitive (stronger viability inhibition); extreme values may be limits of the assay
Details: 72 h; culture: 2D
Answer with the value's number alone.

compound	drug sensitivity score
CCS(=O)(=O)N1CCN(c2ccc(Nc3ncc(C(N)=O)c(NC4CC4)n3)cc2)CC1	0.8
Cc1c(Cn2c(C)nc3c(C(=O)O)cc(N4CCOCC4)cc32)cccc1C(F)(F)F	0
COc1nc(N)nc2c1ncn2[C@@H]1O[C@H](CO)[C@@H](O)[C@@H]1O	0
Cn1cc(-c2ccc(F)c(C(F)(F)F)c2)nc1C1CCN(c2ncnc3[nH]ncc23)CC1	0
CN1CCC(COc2cnc(-c3cccc(Cn4nc(-c5cccc(C#N)c5)ccc4=O)c3)nc2)CC1	0

Which value of drug sensitivity score has been reported for Cc1ccc(C(=O)Nc2ccc(Oc3cc4cnn(C)c4cc3-c3cn[nH]c3)c(F)c2)c(=O)n1-c1ccc(F)cc1 in the records? 0

Which value of drug sensitivity score has been reported for CC(C)c1cc(C(=O)N2Cc3ccc(CN4CCN(C)CC4)cc3C2)c(O)cc1O in the records? 13.3

Which value of drug sensitivity score has been reported for C=CC(=O)Nc1cc(Nc2nccc(-c3cn(C)c4ccccc34)n2)c(OC)cc1N(C)CCN(C)C in the records? 2.7

Which value of drug sensitivity score has been reported for COc1cc(Nc2ncc(F)c(Nc3ccc4c(n3)N(COP(=O)(O)O)C(=O)C(C)(C)O4)n2)cc(OC)c1OC in the records? 2

Which value of drug sensitivity score has been reported for O=C1CCC(N2C(=O)c3ccccc3C2=O)C(=O)N1 (stereo not drawn) [Thalidomide] in the records? 0
